Entries and their measured kon follow.
assayed_target: T1, recombinant biotinylated human PAR2 extracellular domain (residues 1-75), N-terminal AviTag, C-terminal Flag … (human, UniProt P55085 26-75, biotin on the AviTag (enzymatic biotinylation))
T1 construct: also called Bio-human-PAR2 ECD; human PAR2 ECD; not shown: N-terminal AviTag (Avidity LLC); C-terminal Flag and poly Histidine tags
T1 sequence (P55085 26-75): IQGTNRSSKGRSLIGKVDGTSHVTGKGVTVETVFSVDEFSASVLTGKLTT
assay_text: Biacore SPR 25 C, pH 6.0
Numbers only; they are read as M⁻¹ s⁻¹.

Observe how each entry below is paired with its result.
binder	kon [M⁻¹ s⁻¹]
Par0067 Fab (Fab, V domains shown, Fab; also called ZZ15D2-D02) VH: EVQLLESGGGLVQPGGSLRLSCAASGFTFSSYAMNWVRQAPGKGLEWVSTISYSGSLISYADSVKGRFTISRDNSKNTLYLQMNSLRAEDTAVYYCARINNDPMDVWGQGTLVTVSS VL: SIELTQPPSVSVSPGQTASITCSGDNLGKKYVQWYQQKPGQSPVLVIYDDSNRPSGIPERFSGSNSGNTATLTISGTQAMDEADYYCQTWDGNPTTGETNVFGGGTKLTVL	3.12e+06
PaB670103 Fab (Fab, V domains shown, Fab; also called ZZ1RCX-C09) VH: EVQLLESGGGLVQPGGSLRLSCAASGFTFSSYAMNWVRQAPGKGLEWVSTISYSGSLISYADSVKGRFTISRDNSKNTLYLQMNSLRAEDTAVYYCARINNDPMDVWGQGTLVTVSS VL: SIELTQPPSVSVSPGQTASITCSGDNLGKKYVQWYQQKPGQSPVLVIYDDSNRPSGIPERFSGSNSGNTATLTISGTQAMDEADYYCHTWDGHHTTGETNHFGGGTKLTVL	336000

Okay, next one:
Task: Query: kon; subject: PaB670076 Fab (Fab, V domains shown, Fab; also called ZZ1NHH-F09) VH: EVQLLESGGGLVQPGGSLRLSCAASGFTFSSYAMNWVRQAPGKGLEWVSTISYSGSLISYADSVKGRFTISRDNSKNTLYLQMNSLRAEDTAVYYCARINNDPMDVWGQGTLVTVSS VL: SIELTQPPSVSVSPGQTASITCSGDNLGKKYVQWYQQKPGQSPVLVIYDDSNRPSGIPERFSGSNSGNTATLTISGTQAMDEADYYCHTWDHHHTTGEHNVFGGGTKLTVL
Result: 1.11e+06

The reported numbers originate from patent US20180305450A1.
